These entries and their values trace back to patent US11931343B2.

Target of assay: human CD73 (Homo sapiens, UniProt P21589)
Sequence (P21589 27-549): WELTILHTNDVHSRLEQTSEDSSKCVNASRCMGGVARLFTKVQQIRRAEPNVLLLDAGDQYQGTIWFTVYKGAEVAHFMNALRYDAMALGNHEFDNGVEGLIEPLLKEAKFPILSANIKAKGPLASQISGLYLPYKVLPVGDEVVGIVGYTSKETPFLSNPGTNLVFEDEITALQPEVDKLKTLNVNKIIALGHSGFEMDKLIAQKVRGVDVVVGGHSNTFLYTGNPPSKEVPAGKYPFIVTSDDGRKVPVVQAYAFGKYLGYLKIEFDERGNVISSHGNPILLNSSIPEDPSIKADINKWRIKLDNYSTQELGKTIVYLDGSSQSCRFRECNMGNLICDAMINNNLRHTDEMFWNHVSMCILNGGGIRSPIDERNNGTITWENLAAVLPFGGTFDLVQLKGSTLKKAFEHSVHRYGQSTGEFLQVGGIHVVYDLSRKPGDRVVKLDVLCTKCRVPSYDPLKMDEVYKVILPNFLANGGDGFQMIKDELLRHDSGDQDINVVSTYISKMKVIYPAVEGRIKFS
Assay: Inhibition of Ecto-5′-nucleotidase (CD73) activity in CHO-CD73 cells, phosphate release from AMP
Setup conditions: CHO-K1 cells stably transfected with human CD73; 25 μM AMP; 50 minutes, 37° C.; read-out: Potency: CD73 IC50
IC50: recorded values

Use these answered entries as a reference point.
# Compound, Test value
data = [
    ("N#Cc1cccc(-n2nccc2-c2cc3c(cn2)nnn3-c2ccc3[nH]c(=O)[nH]c3c2)c1", "> 1000 nM"),
    ("Cc1coc(-c2cc(C#N)ccc2Cn2nccc2-c2cc(F)c3nnn(-c4ccc5[nH]c(=O)[nH]c5c4)c3c2)n1", "100 to 1000 nM"),
    ("N#Cc1ccc(Cn2nccc2-c2cc3c(nnn3-c3ccc4cn[nH]c4c3)c(=O)[nH]2)cc1", "< 100 nM"),
    ("Fc1cc(-c2ccnn2Cc2ccccc2)cc2c1nnn2-c1cnc2cn[nH]c2c1", "> 1000 nM"),
    ("N#Cc1ccc(C(CO)n2nccc2-c2cc(F)c3nnn(-c4ccc5cn[nH]c5c4)c3c2)cc1 (stereo not drawn)", "100 to 1000 nM"),
    ("N#Cc1ccc(Cn2nccc2-c2cc(Cl)c3nnn(-c4ccc5[nH]c(=O)[nH]c5c4)c3c2)cc1", "100 to 1000 nM"),
    ("Cn1nc(-c2ccc3[nH]c(=O)[nH]c3c2)c2cc(-c3ccnn3Cc3ccc(C#N)cc3)cnc21", "100 to 1000 nM"),
    ("N#Cc1ccc(Cn2nccc2-c2cc(F)c3nnn(-c4ccc5[nH]c(=O)[nH]c5c4)c3c2)c(S(=O)(=O)c2ccccc2)c1", "100 to 1000 nM"),
    ("O=c1[nH]c2ccc(-n3nnc4c(Cl)cc(-c5ccnn5Cc5ccc(F)cn5)cc43)cc2[nH]1", "100 to 1000 nM"),
    ("CC(C)(O)c1ccc(Cn2nccc2-c2cc(F)c3nnn(-c4ccc5[nH]c(=O)[nH]c5c4)c3c2)cc1", "> 1000 nM"),
]

Look at this compound and give its reported IC50. "O=c1[nH]c2ccc(-n3nnc4c(Cl)cc(-c5ccnn5Cc5ccc(F)c(F)c5)cc43)cc2[nH]1" 100 to 1000 nM

Look at this compound and give its reported IC50. "O=c1[nH]c2ccc(-n3nnc4c(F)cc(-c5ccnn5-c5cc(Cl)cc(Cl)c5)cc43)cc2[nH]1" 100 to 1000 nM

Look at this compound and give its reported IC50. "O=c1[nH]c2ccc(-n3nnc4c(F)cc(-c5ccnn5Cc5ccc(Cl)cc5Cl)cc43)cc2[nH]1" 100 to 1000 nM

Look at this compound and give its reported IC50. CC(O)c1ccc(Cn2nccc2-c2cc(F)c3nnn(-c4ccc5[nH]c(=O)[nH]c5c4)c3c2)cc1 (stereo not drawn) > 1000 nM

Look at this compound and give its reported IC50. "N#Cc1ccc(Cn2nccc2-c2cc(F)c3nnn(-c4ccc5[nH]c(=O)[nH]c5c4)c3c2)c(F)c1" 100 to 1000 nM

---

Target of assay: human CD73 (Homo sapiens)
Assay: Inhibition of Ecto-5′-nucleotidase (CD73) activity in CHO-CD73 cells, phosphate release from AMP
Setup conditions: CHO-K1 cells stably transfected with human CD73; 25 μM AMP; 50 minutes, 37° C.; read-out: Potency: CD73 IC50
Recorded endpoint: IC50

# Smiles entry, IC50
records = [
    ("Cc1ccc(Cn2nccc2-c2cc(Cl)c3nnn(-c4ccc5[nH]c(=O)[nH]c5c4)c3c2)c(Cl)c1", "100 to 1000 nM"),
    ("N#Cc1ccc(Cn2nccc2-c2cc(F)c3nnn(-c4ccc5oc(=O)[nH]c5c4)c3c2)cc1", "> 1000 nM"),
    ("N#Cc1ccc(Cn2nccc2-c2cc3c(cn2)cnn3-c2ccc3cn[nH]c3c2)cc1", "> 1000 nM"),
]

Now examine the next entry.
Look at this compound and give its reported IC50. "Cc1cc(C)cc(-n2nccc2-c2cc(F)c3nnn(-c4ccc5[nH]c(=O)[nH]c5c4)c3c2)c1" 100 to 1000 nM
